# Assay Procedure: Antiproliferative activity against human PC9-OR cells assessed as reduction in cell viability measured after 72 hrs by MTS assay
Recorded measurements of IC50, one per entry
Quantity Measured: IC50

chemical_structure=O=C(CN1C(=O)/C(=N\NC(=O)c2cc(Br)ccc2O)c2c(Br)cccc21)Nc1ccc([N+](=O)[O-])cc1 recorded_result="4.05 µM"
chemical_structure=Cc1ccc(NC(=O)CN2C(=O)/C(=N\NC(=O)c3cc(Br)ccc3O)c3ccc(Cl)cc32)cc1 recorded_result="2.27 µM"
chemical_structure=Cc1ccc(NC(=O)CN2C(=O)/C(=N\NC(=O)c3cc(Br)ccc3O)c3ccccc32)cc1 recorded_result="9.51 µM"
chemical_structure=Cc1ccc(NC(=O)CN2C(=O)/C(=N\NC(=O)c3cc(Br)ccc3O)c3ccc(Br)cc32)cc1 recorded_result="2.08 µM"
